Measured pEC50 accompanies every entry in the list below.
Test: NF-kB promoter reporter activators, neuronal cells, dose response, cell-based, SH-SY5Y, luciferase (AID 1241)
Details: fold induction
Friendly reminder that pEC50 comes from taking -log10 of the concentration in mol/L.

Solved entries (count: 10):
Tell me its pEC50 given `O=C(Nc1ccccn1)c1ccc2ccccc2n1` as the entry.
4.76

Tell me its pEC50 given `Cc1ccc(OCC(=O)Nc2ccccc2[N+](=O)[O-])c(Br)c1` as the entry.
5.02

Tell me its pEC50 given `Cc1cc(C)c[n+](-c2nc3ccccc3nc2C(=C=[N-])C#N)c1` as the entry.
4.55

Tell me its pEC50 given `O=S(=O)(c1ccc(Cl)cc1)c1snnc1-c1ccccc1` as the entry.
5.63

Tell me its pEC50 given `COc1cc(/C=N/O)ccc1OCc1ccc([N+](=O)[O-])cc1` as the entry.
5.77

Tell me its pEC50 given `Nc1ccccc1C(=O)OCCOc1ccccc1` as the entry.
6.04

Tell me its pEC50 given `Cc1c(C(=O)Nc2nc3ccccc3[nH]2)oc2ccccc12` as the entry.
5.86

Tell me its pEC50 given `COc1ccc(-c2csc(Nc3ncccc3C)n2)cc1` as the entry.
5.78

Tell me its pEC50 given `N/C(=N\OC(=O)COc1ccc(Cl)cc1Cl)c1ccccn1` as the entry.
5.93

Tell me its pEC50 given `Clc1cccc(Cl)c1/C=C/c1nc2ccccc2[nH]1` as the entry.
5.92

***
Tell me its pEC50 given `Nc1nc(Nc2ccccc2)nc2ccccc12` as the entry.
5.86

Tell me its pEC50 given Cc1cc(C)c2nc(NC(=O)C3CCCO3)sc2c1 (configuration not stated) as the entry.
4.73

----------
Measured pEC50 accompanies every entry in the list below.
Assay: NF-kB promoter reporter activators, neuronal cells, dose response, cell-based, SH-SY5Y, luciferase (AID 1241)
Details: fold induction
Friendly reminder that pEC50 comes from taking -log10 of the concentration in mol/L.

Solved entries (count: 4):
Tell me its pEC50 given `Cn1ccc(C(=O)Nc2ccc(Br)cc2Br)n1` as the entry.
4.53

Tell me its pEC50 given `Cc1ccccc1Nc1nc(N)nc(CSc2ccc(F)cc2)n1` as the entry.
5.19

Tell me its pEC50 given `CN1/C(=C/C(=O)c2cccs2)Sc2ccccc21` as the entry.
6.16

Tell me its pEC50 given `O=C(/C=C/c1ccccc1[N+](=O)[O-])Nc1ccccc1` as the entry.
4.98

Now for the molecule whose pEC50 we want.
Tell me its pEC50 given `O=C(Nc1ccccn1)c1sc2cccc(F)c2c1Cl` as the entry.
5.75

----------
Assay: NF-kB promoter reporter activators, neuronal cells, dose response, cell-based, SH-SY5Y, luciferase (AID 1241)
Conditions: fold induction
MEASURE: pEC50
Friendly reminder that pEC50 comes from taking -log10 of the concentration in mol/L.

Solved entries (count: 5):
Tell me its pEC50 given `Cc1ccsc1C(=O)OCc1csc(-c2ccccc2)n1` as the entry.
5.81

Tell me its pEC50 given `C/C(=N\Nc1cccc2cccnc12)c1ccccc1O` as the entry.
6.00

Tell me its pEC50 given `O=C(Nc1ccc2c(c1)CCC2)c1ccc(Br)s1` as the entry.
6.11

Tell me its pEC50 given `CC(=O)c1cnc2cc(-c3ccc(C)cc3)nn2c1C` as the entry.
5.49

Tell me its pEC50 given `NC(=O)c1ccc(-c2ncc(-c3ccccc3)o2)cc1` as the entry.
6.39

***
Tell me its pEC50 given `O=C(Nc1ccccc1)c1ccc2ccccc2n1` as the entry.
5.24

Tell me its pEC50 given `Brc1ccc(-c2ncc(-c3ccccc3)cn2)cc1` as the entry.
5.41

Tell me its pEC50 given `CN=c1scc(C)n1/N=C/c1ccc(O)cc1` as the entry.
4.81

Tell me its pEC50 given `COC(=O)CSc1nc2cc(OC)ccc2cc1C#N` as the entry.
6.53

Tell me its pEC50 given `CCCCCCOc1ccc(OC(=O)c2cccnc2)cc1` as the entry.
6.72

Tell me its pEC50 given `COC(=O)c1ccc(/C=C(\C#N)c2ccccn2)cc1` as the entry.
4.60

Tell me its pEC50 given `Clc1ccc(-c2nc3n(n2)Cc2ccccc2-3)cc1` as the entry.
6.46

Tell me its pEC50 given `O=C(N/N=C/C(Br)=C\c1ccccc1)c1n[nH]c2c1CCC2` as the entry.
5.96

Tell me its pEC50 given `COc1ccc2c(c1)OC/C(=C/c1cccs1)C2=O` as the entry.
5.26

----------
Test: NF-kB promoter reporter activators, neuronal cells, dose response, cell-based, SH-SY5Y, luciferase (AID 1241)
Conditions: fold induction
MEASURE: pEC50
Friendly reminder that pEC50 comes from taking -log10 of the concentration in mol/L.

Tell me its pEC50 given `O=C(Nc1cccc(O)c1)c1noc2c1CCc1ccccc1-2` as the entry.
6.37

Tell me its pEC50 given `CCNC(=S)NNC(=O)c1cc(-c2ccc(OCC)cc2)nc2ccccc12` as the entry.
5.97

Tell me its pEC50 given `Cc1cc(/C=C(\C#N)C(=O)Nc2ccccc2F)c(C)[nH]1` as the entry.
4.54

Tell me its pEC50 given `COc1cc(SC)ccc1C(=O)Nc1ccc(C)cc1` as the entry.
5.52

Tell me its pEC50 given `COc1cc(/C=C(/C(=O)c2cccs2)c2nc3ccccc3[nH]2)cc(OC)c1O` as the entry.
5.11

Tell me its pEC50 given `COc1cc(/C=N/O)ccc1OCc1ccccc1Cl` as the entry.
4.92

***
Tell me its pEC50 given Fc1cccc(C2NN=C(c3ccccc3)S2)c1 (stereo unspecified) as the entry.
5.02

----------
Measured pEC50 accompanies every entry in the list below.
Test: NF-kB promoter reporter activators, neuronal cells, dose response, cell-based, SH-SY5Y, luciferase (AID 1241)
Settings: fold induction
Friendly reminder that pEC50 comes from taking -log10 of the concentration in mol/L.

Solved entries (count: 2):
Tell me its pEC50 given `COc1ccc2nc(Nc3ccccc3OC)sc2c1` as the entry.
5.65

Tell me its pEC50 given `COc1ccc(C2=Nc3cc(C)ccc3OC2)cc1` as the entry.
5.71

Now for the compound whose pEC50 we want.
Tell me its pEC50 given O=C1CC(c2ccco2)CC2=C1C1c3ccccc3C(=O)N1c1ccccc1N2 (configuration not stated) as the entry.
5.51

----------
Assay: NF-kB promoter reporter activators, neuronal cells, dose response, cell-based, SH-SY5Y, luciferase (AID 1241)
Settings: fold induction
MEASURE: pEC50
Friendly reminder that pEC50 comes from taking -log10 of the concentration in mol/L.

Solved entries (count: 2):
Tell me its pEC50 given `Clc1c(CSc2nc3ccccc3o2)nc2sccn12` as the entry.
5.62

Tell me its pEC50 given `N/C(=N\OC(=O)c1ccccc1Cl)c1ccccc1` as the entry.
6.02

***
Tell me its pEC50 given `COc1ccccc1N1CCN(Cc2ccc(O)c3ncccc23)CC1` as the entry.
5.94

Tell me its pEC50 given `NS(=O)(=O)c1cc(C(=O)OCC(=O)c2ccc3c(c2)OCCO3)ccc1Cl` as the entry.
5.46

Tell me its pEC50 given `Cc1nc(Sc2nnnn2C)c2c3c(sc2n1)CCC3` as the entry.
5.80

Tell me its pEC50 given `COc1cccc2sc(N(C)c3ccccc3)nc12` as the entry.
5.57

----------
Experiment: NF-kB promoter reporter activators, neuronal cells, dose response, cell-based, SH-SY5Y, luciferase (AID 1241)
Conditions: fold induction
pEC50: −log10 of the molar value.
Measured pEC50 accompanies every entry in the list below.

Solved entries (count: 2):
Tell me its pEC50 given `O=C(O)c1cccc(COc2ccccc2Cl)c1` as the entry.
5.87

Tell me its pEC50 given `COc1ccc(-c2nc(-c3ccc(Br)o3)no2)cc1` as the entry.
5.70

***
Tell me its pEC50 given `OCc1cn(-c2ccccc2)nc1-c1cc2ccccc2o1` as the entry.
5.18

Tell me its pEC50 given `O=C(/C=C/Nc1ccccc1)c1ccccc1` as the entry.
> 7.23

----------
Measured EC50 accompanies every entry in the list below.
Experiment: NF-kB promoter reporter activators, neuronal cells, dose response, cell-based, SH-SY5Y, luciferase (AID 1241)
Conditions: fold induction

Solved entries (count: 2):
Tell me its EC50 given `Cc1cccn2cc(-c3ccc(F)cc3)nc12` as the entry.
1860 nM

Tell me its EC50 given `CC(/C=N/NC(=O)c1cccs1)=C\c1ccccc1` as the entry.
2310 nM

***
Tell me its EC50 given CCC(C)c1ccc(NC(=O)c2cccs2)cc1 (stereo unspecified) as the entry.
734 nM

Tell me its EC50 given `Cc1ccc(NC(=O)c2cc3ccccc3o2)cc1S(=O)(=O)N(C)C` as the entry.
2040 nM

Tell me its EC50 given `COc1ccc(-c2cn3c4c(sc3n2)CCCC4)cc1` as the entry.
650 nM

Tell me its EC50 given `Nc1nn(-c2cccc(F)n2)cc1-c1ccc(Cl)cc1` as the entry.
675 nM

Attribution: PubChem BioAssay AID1241
